Kindly supply the reported pEC50 values for the records listed here.
target: GABA-A receptor; alpha-1/beta-2/gamma-2 (Homo sapiens, UniProt P14867+P18507+P47870); experiment: Positive allosteric modulation of human GABA-A alpha1beta2gamma2S receptor expressed in Xenopus laevis oocytes assessed as increase in GABA-induced chloride channel current by two-electrode voltage clamp method relative to control; format: cell-based
Sequence (P14867 whole entry): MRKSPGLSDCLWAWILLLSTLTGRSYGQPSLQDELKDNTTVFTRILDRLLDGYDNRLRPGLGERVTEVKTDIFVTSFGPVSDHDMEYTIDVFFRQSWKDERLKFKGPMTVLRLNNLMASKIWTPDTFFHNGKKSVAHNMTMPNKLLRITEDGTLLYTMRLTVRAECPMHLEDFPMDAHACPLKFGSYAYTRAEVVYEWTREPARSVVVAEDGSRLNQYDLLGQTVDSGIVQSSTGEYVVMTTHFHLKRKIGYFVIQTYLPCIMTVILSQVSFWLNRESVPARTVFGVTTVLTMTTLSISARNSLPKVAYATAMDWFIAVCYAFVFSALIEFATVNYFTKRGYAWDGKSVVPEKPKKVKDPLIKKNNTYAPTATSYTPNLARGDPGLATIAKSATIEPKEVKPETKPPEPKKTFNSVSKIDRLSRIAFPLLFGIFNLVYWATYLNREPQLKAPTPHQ
Sequence (P47870 whole entry): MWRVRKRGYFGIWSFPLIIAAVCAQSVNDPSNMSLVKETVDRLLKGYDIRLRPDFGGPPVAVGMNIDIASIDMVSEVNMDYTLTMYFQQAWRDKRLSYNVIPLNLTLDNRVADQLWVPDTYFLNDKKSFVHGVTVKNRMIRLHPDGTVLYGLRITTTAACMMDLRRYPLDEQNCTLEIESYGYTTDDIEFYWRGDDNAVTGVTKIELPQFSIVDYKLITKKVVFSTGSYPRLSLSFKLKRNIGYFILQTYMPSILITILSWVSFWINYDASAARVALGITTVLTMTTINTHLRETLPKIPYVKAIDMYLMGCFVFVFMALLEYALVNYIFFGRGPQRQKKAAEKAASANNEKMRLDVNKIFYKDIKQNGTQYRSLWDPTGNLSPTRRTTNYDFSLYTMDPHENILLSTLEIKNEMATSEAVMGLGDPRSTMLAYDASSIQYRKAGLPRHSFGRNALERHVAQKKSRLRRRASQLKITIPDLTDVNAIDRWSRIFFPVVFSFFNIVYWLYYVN
Sequence (P18507 whole entry): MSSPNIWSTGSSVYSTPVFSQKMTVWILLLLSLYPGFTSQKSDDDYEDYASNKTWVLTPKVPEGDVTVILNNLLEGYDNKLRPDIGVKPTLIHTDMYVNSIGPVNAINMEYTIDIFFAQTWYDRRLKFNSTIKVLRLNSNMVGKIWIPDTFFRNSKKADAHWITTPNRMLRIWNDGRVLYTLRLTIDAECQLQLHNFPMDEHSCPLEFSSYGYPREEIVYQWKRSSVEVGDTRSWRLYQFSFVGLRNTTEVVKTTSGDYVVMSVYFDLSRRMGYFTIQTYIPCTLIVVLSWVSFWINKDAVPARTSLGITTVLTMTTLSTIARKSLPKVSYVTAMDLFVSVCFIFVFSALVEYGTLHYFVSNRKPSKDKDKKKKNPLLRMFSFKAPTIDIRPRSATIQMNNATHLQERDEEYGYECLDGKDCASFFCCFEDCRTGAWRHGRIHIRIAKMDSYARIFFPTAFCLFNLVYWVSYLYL
One number for each entry, as −log10 of the molar value.

COc1ccc2ccc(=O)oc2c1CC=C(C)C [OSTHOLE]; 4.85

# evaluate next
// lookup pEC50 for CC1(C)O[C@H]1COc1c2ccoc2cc2oc(=O)ccc12 [OXYPEUCEDANIN]
4.60

###

assay: Inhibition of BZD receptor (unknown origin); parameters: species or system Homo sapiens
Assay metric: IC50 (nM)
Give bare numbers, in nM.

// lookup IC50 for O=c1c2c[nH]c3c(c-2nn1-c1ccc(Cl)cc1)CCCC3
1

###

assay: Displacement of [3H]-Flumazenil from GABAA/BZD receptor in Sprague-Dawley rat cerebral cortex incubated for 40 mins by liquid scintillation counting method
Kindly supply the reported Ki values for the records listed here.
One number for each entry, in nM.

O=C1C[C@@H](c2ccc(O)cc2)Oc2cc(O)c(-c3c(O)cc(O)c4c(=O)cc(-c5ccc(O)cc5)oc34)c(O)c21; 45

# evaluate next
// lookup Ki for O=C1C[C@@H](c2ccc(O)cc2)Oc2c1c(O)cc(O)c2-c1c(O)cc(O)c2c(=O)cc(-c3ccc(O)cc3)oc12
280

###

assay: Oral bioavailability in rat at 3 mg/kg; assay type: ADME, organism-based; conditions: in vivo
Assay metric: bioavailability (%)
Numbers only, in %.

// lookup bioavailability for c1ccc(-c2nnc3c4c(c(OCc5ccccn5)nn23)C2CCC4CC2)cc1
33

###

molecular target: GABA-A receptor; alpha-1/beta-2/gamma-2 (Homo sapiens, UniProt P14867+P18507+P47870); experiment: Positive allosteric modulation of human recombinant GABA-A alpha1beta2gamma2L receptor expressed in Xenopus laevis oocytes by two-electrode voltage clamp method; type: cell-based
Assay metric: pEC50
Numbers only, as −log10 of the molar value.

Item: CCCc1cc2c(=O)c(-c3ccc4c(c3)OCO4)c(CC)oc2cc1OC(=O)CC Test system: GABA-A receptor; alpha-1/beta-2/gamma-2 (Homo sapiens, UniProt P14867+P18507+P47870) Read-out: pEC50 Value: ?
5.03

###

test: Displacement of [3H]-Flumazenil from GABAA/BZD receptor in rat cortical membranes incubated for 40 mins by radioligand binding assay; format: cell membranes
Assay metric: Ki (nM)
Answers are plain numbers, in nM.

CCCCCc1nsc2[nH]c3ccc(C)cc3c(=O)c12; 13

# evaluate next
// lookup Ki for CCCC(=O)Nc1nsc2[nH]c3ccc(C)cc3c(=O)c12
2.8

###

assay: Binding affinity to human GABA-A alpha4beta2delta receptor expressed in Xenopus laevis oocytes; assay type: cell-based
Assay metric: pEC50
Give bare numbers, as −log10 of the molar value.

// lookup pEC50 for COc1ccccc1-c1oc2ccc(C)cc2c(=O)c1O
5.85

###

experiment: Binding affinity to human GABA-A alpha4beta3delta receptor expressed in Xenopus laevis oocytes; format: cell-based
Assay metric: EC50 (nM)
Answers are plain numbers, in nM.

// lookup EC50 for COc1ccccc1-c1oc2ccc(C)cc2c(=O)c1O
2500

###

target: GABA-A receptor; anion channel; experiment: Displacement of [35S]TBPS from Sprague-Dawley rat brain cortical membrane GABAA receptor incubated for 90 mins by scintillation counting method
Assay metric: pIC50
Numbers only, as −log10 of the molar value.

Item: CCNC1=Nc2ccc(Cl)cc2C(C)(c2ccccc2)O1 (stereo unspecified) [ETIFOXINE] Test system: GABA-A receptor; anion channel Read-out: pIC50 Value: ?
5.17

Source of measurements: ChEMBL document CHEMBL4346691
